- experimentalDetails: xn = mol fraction of the nth substance listed
- experimentalContext: 338.15 K; 100 kPa; Liquid; Vibrating tube method; x1 = 0.25
valueType: mass density (kg/m3)
Write it as a number; the unit kg/m3 goes unstated.

Request: Data request, read-out mass density, for CCCC[N+](CCCC)(CCCC)Cc1ccccc1.[Cl-] [benzyltributylammonium chloride] + OCCOCCOCCO
Response: 1041.92

Request: Follow-up item: CCCC[N+](CCCC)(CCCC)Cc1ccccc1.[Cl-] [benzyltributylammonium chloride] + OCCO
Response: 1010.67

Request: Follow-up entry: C[N+](C)(C)Cc1ccccc1.[Cl-] [trimethylbenzylammonium chloride] + OCCOCCOCCO
Response: 1090.59

Request: Next molecule up: CCCC[N+](CCCC)(CCCC)Cc1ccccc1.[Cl-] [benzyltributylammonium chloride] + OCCOCCO
Response: 1029.85
